# target-of-assay: LK35.2-hPD-L1 cells / PE-labeled PD-1-Ig (Homo sapiens, UniProt Q9NZQ7)
# Construct: expressed in transfected cells; host or cells: LK35.2 mouse B cell line
# Sequence (Q9NZQ7 19-290): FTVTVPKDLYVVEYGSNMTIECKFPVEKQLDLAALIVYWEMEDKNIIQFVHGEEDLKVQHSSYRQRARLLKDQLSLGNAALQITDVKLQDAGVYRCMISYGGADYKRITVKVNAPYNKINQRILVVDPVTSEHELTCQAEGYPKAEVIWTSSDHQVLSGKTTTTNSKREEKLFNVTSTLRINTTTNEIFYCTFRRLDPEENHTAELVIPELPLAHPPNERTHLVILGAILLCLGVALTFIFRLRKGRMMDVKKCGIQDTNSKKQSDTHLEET
# measurement-protocol: LK35.2-hPD-L1 cell binding high-content screening assay
# Format: cell-based
# condition-summary: cluster symbol; cell line of CBA not given (LK35.2-hPD-L1 or 293T-hPD-L1); read-out: CBA IC50 cluster
Positions of bridges follow the written chain, without caps; N, C: chain ends. Non-standard residues stand in square brackets, D forms with d. Residues, ends and D or L forms follow the SMILES beside them. NMeNle = CCCC[C@H](NC)C(=O)O; NMeA = CN[C@@H](C)C(=O)O; Sar = CNCC(=O)O
assay-endpoint: IC50

Input: Report IC50 for CCCC[C@H]1C(=O)N(C)[C@@H](CCCC)C(=O)N[C@@H](CCCNC(=N)N)C(=O)N[C@H](C(=O)NCC(N)=O)CSCC(=O)N[C@@H](Cc2ccccc2)C(=O)N(C)[C@@H](C)C(=O)N[C@H](C)C(=O)N2CCC[C@H]2C(=O)N[C@@H](Cc2cnc[nH]2)C(=O)N[C@@H](CC(C)C)C(=O)N(C)CC(=O)N[C@@H](Cc2c[nH]c3ccccc23)C(=O)N[C@@H](CO)C(=O)N[C@@H](Cc2c[nH]c3ccccc23)C(=O)N1C [Example 1081] ({CH2CO}-F[NMeA][dA]PHL[Sar]WSW[NMeNle][NMeNle]RCG-NH2; thioether N-14)
Output: > 74.3 nM

* * *

# target-of-assay: Human PD-L1/PD-1 (Homo sapiens, UniProt Q9NZQ7)
# Construct: made in house; host or cells: HEK293T
# Sequence (Q9NZQ7 with tags, fused parts or gaps): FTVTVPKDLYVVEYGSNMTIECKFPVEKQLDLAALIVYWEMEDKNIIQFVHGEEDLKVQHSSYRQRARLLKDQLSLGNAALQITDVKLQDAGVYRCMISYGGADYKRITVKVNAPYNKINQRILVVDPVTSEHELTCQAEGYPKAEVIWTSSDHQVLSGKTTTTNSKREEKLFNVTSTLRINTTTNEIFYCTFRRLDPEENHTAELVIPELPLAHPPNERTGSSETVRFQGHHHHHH
# measurement-protocol: HTRF PD-1-Ig/PD-L1-His binding assay (human PD-L1)
# condition-summary: cluster symbol; read-out: HTRF IC50 cluster
Reported IC50 values for the following molecules.

CCCC[C@H]1C(=O)N(C)[C@@H](CCCC)C(=O)N[C@@H](CCCN)C(=O)N[C@H](C(=O)NCC(N)=O)CSCC(=O)N[C@@H](Cc2ccc(O)cc2)C(=O)N2CC(F)(F)C[C@H]2C(=O)N[C@@H](CC(N)=O)C(=O)N2CCC[C@H]2C(=O)N[C@@H](Cc2cnc[nH]2)C(=O)N[C@@H](CC(C)C)C(=O)N2C[C@H](O)C[C@H]2C(=O)N[C@@H](Cc2c[nH]c3ccccc23)C(=O)N[C@@H](CO)C(=O)N[C@@H](Cc2c[nH]c3ccccc23)C(=O)N1C :: 0.385 to 6.74 nM

Now examine the next entry.
Input: State its IC50: CCCC[C@H]1C(=O)N(C)[C@@H](CCCC)C(=O)N[C@@H](CCCN)C(=O)N[C@H](C(=O)NCC(N)=O)CSCC(=O)N[C@@H](Cc2ccc(O)cc2)C(=O)N2C[C@@H](N)C[C@H]2C(=O)N[C@@H](CC(N)=O)C(=O)N2CCC[C@H]2C(=O)N[C@@H](Cc2cnc[nH]2)C(=O)N[C@@H](CC(C)C)C(=O)N2C[C@H](O)C[C@H]2C(=O)N[C@@H](Cc2c[nH]c3ccccc23)C(=O)N[C@@H](CO)C(=O)N[C@@H](Cc2c[nH]c3ccccc23)C(=O)N1C
Output: 6.76 to 30.3 nM

* * *

# target-of-assay: Human PD-L1/PD-1 (Homo sapiens)
# Construct: made in house; host or cells: HEK293T
# measurement-protocol: HTRF PD-1-Ig/PD-L1-His binding assay (human PD-L1)
# condition-summary: cluster symbol; read-out: HTRF IC50 cluster
pIC50: −log10 of the molar value. Positions of bridges follow the written chain, without caps; N, C: chain ends. Non-standard residues stand in square brackets, D forms with d. Residues, ends and D or L forms follow the SMILES beside them. Ala(benzothiazol-2-yl) = N[C@@H](Cc1nc2ccccc2s1)C(=O)O; NMeF = CN[C@@H](Cc1ccccc1)C(=O)O; NMeNle = CCCC[C@H](NC)C(=O)O; NMeA = CN[C@@H](C)C(=O)O; Sar = CNCC(=O)O
assay-endpoint: pIC50

CCCC[C@H]1C(=O)N(C)CC(=O)N[C@@H](CC(=O)O)C(=O)N[C@@H](C(C)C)C(=O)N(C)[C@@H](Cc2ccccc2)C(=O)N[C@@H](Cc2ccc(O)cc2)C(=O)N(C)CC(=O)N[C@@H](Cc2nc3ccccc3s2)C(=O)N[C@@H](Cc2ccc(O)cc2)C(=O)N[C@@H](CC(C)C)C(=O)N[C@H](C(=O)NCC(N)=O)CSCC(=O)N[C@@H](Cc2ccccc2)C(=O)N(C)[C@@H](Cc2ccccc2)C(=O)N1C [Example 3557] ({CH2CO}-F[NMeF][NMeNle][Sar]DV[NMeF]Y[Sar][Ala(benzothiazol-2-yl)]YLCG-NH2; thioether N-13) :: < 7.52

// below: pIC50 requested for another molecule
Input: Could you please provide reported pIC50 for CCCC[C@H]1C(=O)N(C)[C@@H](CCCC)C(=O)N[C@@H](C(C)C)C(=O)N[C@H](C(=O)NCC(N)=O)CSCC(=O)N[C@@H](Cc2ccccc2)C(=O)N(C)[C@@H](C)C(=O)N[C@@H](CC(N)=O)C(=O)N2CCC[C@H]2C(=O)N[C@@H](Cc2cnc[nH]2)C(=O)N[C@@H](CC(C)C)C(=O)N(C)CC(=O)N[C@@H](Cc2c[nH]c3ccccc23)C(=O)N[C@@H](CO)C(=O)N[C@@H](Cc2c[nH]c3ccccc23)C(=O)N1C [Example 5016] ({CH2CO}-F[NMeA]NPHL[Sar]WSW[NMeNle][NMeNle]VCG-NH2; thioether N-14) ? Thanks!
Output: 7.52 to 8.17

* * *

# target-of-assay: Human PD-L1/PD-1 (Homo sapiens, UniProt Q9NZQ7)
# Construct: made in house; host or cells: HEK293T
# measurement-protocol: HTRF PD-1-Ig/PD-L1-His binding assay (human PD-L1)
# condition-summary: cluster symbol; read-out: HTRF IC50 cluster
pIC50: −log10 of the molar value. Starred links: 1 amine or outer side, 2 acyl side, 3 side chain; linkers in the order of their positions; H or OH if unused. Positions of bridges follow the written chain, without caps; N, C: chain ends. Non-standard residues stand in square brackets, D forms with d. Residues, ends and D or L forms follow the SMILES beside them. ξ: configuration not given here. X11 = CC1(C)CC[C@H](C(=O)[*:2])N1[*:1]; Bta = N[C@@H](Cc1csc2ccccc12)C(=O)O; Hyp = O=C(O)[C@@H]1C[C@@H](O)CN1; NMeF = CN[C@@H](Cc1ccccc1)C(=O)O; NMehSer = CN[C@@H](CCO)C(=O)O; NMeNle = CCCC[C@H](NC)C(=O)O; NMeM = CN[C@@H](CCSC)C(=O)O; NMeA = CN[C@@H](C)C(=O)O; Orn = NCCC[C@H](N)C(=O)O; Dap = NC[C@H](N)C(=O)O; ξC = NC(CS)C(=O)O; Sar = CNCC(=O)O
assay-endpoint: pIC50

Known pIC50 results, listed for orientation:
CCCC[C@H]1C(=O)N(C)[C@@H](CCCC)C(=O)N[C@@H](CCCNC(=N)N)C(=O)NC(C(=O)NCC(N)=O)CSCC(=O)N[C@@H](Cc2ccc(O)cc2)C(=O)N(C)[C@@H](C)C(=O)N[C@@H](CC(N)=O)C(=O)N2CCC[C@H]2C(=O)N[C@@H](CC(N)=O)C(=O)N[C@@H](CC(C)C)C(=O)N2CCC[C@H]2C(=O)N[C@@H](Cc2c[nH]c3ccccc23)C(=O)N[C@@H](CO)C(=O)N[C@@H](Cc2csc3ccccc23)C(=O)N1C (some centres unmarked) [Example 9060] ({CH2CO}-Y[NMeA]NPNLPWS[Bta][NMeNle][NMeNle]R[ξC]G-NH2; thioether N-14) :: 8.17 to 9.41
CCCC[C@H]1C(=O)N[C@@H](CCCNC(=N)N)C(=O)NC(C(=O)NCC(N)=O)CSCC(=O)N[C@@H](Cc2ccc(O)cc2)C(=O)N(C)[C@@H](C)C(=O)N[C@@H](CC(=O)O)C(=O)N2CCC[C@H]2C(=O)N[C@@H](Cc2cnc[nH]2)C(=O)N[C@@H](CC(C)C)C(=O)N2CCC[C@H]2C(=O)N[C@@H](Cc2c[nH]c3ccccc23)C(=O)N[C@@H](CO)C(=O)N[C@@H](Cc2c[nH]c3ccccc23)C(=O)N(C)[C@@H](CCOC)C(=O)N1C (some centres unmarked) [Example 9010] ({CH2CO}-Y[NMeA]DPHLPWSW[NMehSer](Me)[NMeNle]R[ξC]G-NH2; thioether N-14) :: 7.52 to 8.17
CCCC[C@H]1C(=O)N(C)[C@@H](CCSC)C(=O)N[C@@H](CCCNC(=N)N)C(=O)NC(C(=O)NCC(N)=O)CSCC(=O)N[C@@H](Cc2ccc(O)cc2)C(=O)N(C)[C@@H](C)C(=O)N[C@@H](CC(N)=O)C(=O)N2CCC[C@H]2C(=O)N[C@@H](Cc2cnc[nH]2)C(=O)N[C@@H](CO)C(=O)N2C[C@H](O)C[C@H]2C(=O)N[C@@H](Cc2c[nH]c3ccccc23)C(=O)N[C@@H](CO)C(=O)N[C@@H](Cc2csc3ccccc23)C(=O)N1C (some centres unmarked) [Example 9108] ({CH2CO}-Y[NMeA]NPHS[Hyp]WS[Bta][NMeNle][NMeM]R[ξC]G-NH2; thioether N-14) :: 8.17 to 9.41
CCCC[C@H]1C(=O)N(C)[C@@H](CCSC)C(=O)N[C@@H](CCCNC(=N)N)C(=O)NC(C(=O)NCC(N)=O)CSCC(=O)N[C@@H](Cc2ccc(O)cc2)C(=O)N(C)[C@@H](C)C(=O)N[C@@H](CC(N)=O)C(=O)N2CCC[C@H]2C(=O)N[C@@H](CN)C(=O)N[C@@H](CC(C)C)C(=O)N2C[C@H](O)C[C@H]2C(=O)N[C@@H](Cc2c[nH]c3ccccc23)C(=O)N[C@@H](CO)C(=O)N[C@@H](Cc2csc3ccccc23)C(=O)N1C (some centres unmarked) [Example 9084] ({CH2CO}-Y[NMeA]NP[Dap]L[Hyp]WS[Bta][NMeNle][NMeM]R[ξC]G-NH2; thioether N-14) :: 8.17 to 9.41

Input: Annotate the compound CCCC[C@H]1C(=O)N(C)CC(=O)N[C@@H](CC(=O)O)C(=O)N[C@@H](C(C)C)C(=O)N(C)[C@@H](Cc2ccccc2)C(=O)N[C@@H](Cc2ccc(O)cc2)C(=O)N2[C@H](CCC2(C)C)C(=O)N[C@@H](Cc2c[nH]c3ccccc23)C(=O)N[C@@H](Cc2ccc(O)cc2)C(=O)N[C@@H](CC(C)C)C(=O)N[C@H](C(=O)NCC(N)=O)CSCC(=O)N[C@@H](Cc2ccccc2)C(=O)N(C)[C@@H](Cc2ccccc2)C(=O)N1C [Example 3184] ({CH2CO}-F[NMeF][NMeNle][Sar]DV[NMeF]Y[X11]WYLCG-NH2; thioether N-13) with its measured pIC50.
Output: < 7.52

Input: # return recorded pIC50 for input CCCC[C@H]1C(=O)N(C)[C@@H](CCCC)C(=O)N[C@@H](C)C(=O)N[C@H](C(=O)NCC(N)=O)CSCC(=O)N[C@@H](Cc2ccc(O)cc2)C(=O)N(C)[C@@H](C)C(=O)N[C@@H](CC(=O)O)C(=O)N2CCC[C@H]2C(=O)N[C@@H](Cc2cnc[nH]2)C(=O)N[C@@H](CCCN)C(=O)N2C[C@H](O)C[C@H]2C(=O)N[C@@H](Cc2c[nH]c3ccccc23)C(=O)N[C@@H](CO)C(=O)N[C@@H](Cc2c[nH]c3ccccc23)C(=O)N1C [Example 1140] ({CH2CO}-Y[NMeA]DPH[Orn][Hyp]WSW[NMeNle][NMeNle]ACG-NH2; thioether N-14)
Output: 8.17 to 9.41

Input: Give pIC50 for CCCC[C@H]1C(=O)N(C)CC(=O)N[C@@H](CC(=O)O)C(=O)N[C@@H](C(C)C)C(=O)N(C)[C@@H](Cc2ccccc2)C(=O)N[C@@H](Cc2ccc(O)cc2)C(=O)N(C)CC(=O)N[C@@H](Cc2csc3ccccc23)C(=O)N[C@@H](Cc2ccc(O)cc2)C(=O)N[C@@H](CC(C)C)C(=O)N[C@H](C(=O)NCC(N)=O)CSCC(=O)N[C@@H](Cc2ccccc2)C(=O)N(C)[C@@H](Cc2ccccc2)C(=O)N1C [Example 3062] ({CH2CO}-F[NMeF][NMeNle][Sar]DV[NMeF]Y[Sar][Bta]YLCG-NH2; thioether N-13)
Output: 8.17 to 9.41

Input: Could you please provide reported pIC50 for CCCC[C@H]1C(=O)N(C)[C@@H](CCCC)C(=O)N[C@@H](CCCNC(=N)N)C(=O)N[C@H](C(=O)NCC(N)=O)CSCC(=O)N[C@@H](Cc2ccccc2)C(=O)N(C)[C@@H](C)C(=O)N[C@@H](CC(N)=O)C(=O)N2CCC[C@H]2C(=O)N[C@@H](Cc2cnc[nH]2)C(=O)N[C@@H](CC(C)C)C(=O)N(C)CC(=O)N[C@@H](Cc2c[nH]c3ccccc23)C(=O)N[C@H](CO)C(=O)N[C@@H](Cc2c[nH]c3ccccc23)C(=O)N1C [Example 1065] ({CH2CO}-F[NMeA]NPHL[Sar]W[dS]W[NMeNle][NMeNle]RCG-NH2; thioether N-14) ? Thanks!
Output: < 7.52

The values you see were collected from patent US9850283B2.
